Hey, just so you know, these numbers are from ChEMBL document CHEMBL1130289.

- Tested on: Sindbis virus
- assay-name: Concentration required to inhibit Sindbis induced cytopathicity in Vero cells by 50%
- Format: functional, organism-based
Provide the reported IC50 of each item.

Before answering, review these 6 worked examples.
{"compound": "CCCCCCCCCCCCSCCCCCCCCCCCCC(=O)NCCCCCCCCCCC(=O)[O-].[Na+]", "IC50": "> 200 µg/mL"}
{"compound": "CCCCCCCCCCCCSCCCCC(=O)NCCCCCCCCCCC(=O)NCCC(=O)[O-].[Na+]", "IC50": "> 200 µg/mL"}
{"compound": "CCCCCCCCCCCCSCCCCCCCCCCCCCCCCCCCCCCCCCCCCCCCCCCCCCCCCCCCCCCCCCCC(=O)N(CC)CCCCCCCCCCC(=O)NC(CCC(=O)[O-])C(=O)O.[Na+] (centres undefined)", "IC50": "> 10 µg/mL"}
{"compound": "CCCCCCCCCCCCSCCCCCCCCCCCCCCCCCCCCCCCCCCCCCCCCC(=O)N(CC)CCCCCCCCCCC(=O)[O-].[Na+]", "IC50": "> 200 µg/mL"}
{"compound": "CCCCCCCCCCCCSCCCCCCCCCCCCCCCCCCCCCCCCCCCCCCCCCCCCCCCCC(=O)NCCCCCCCCCCC(=O)[O-].[Na+]", "IC50": "> 200 µg/mL"}
{"compound": "CCCCCCCCCCCCSCCCCCCCCCCC(=O)N(C)CCCCCCCCCCC(=O)[O-].[Na+]", "IC50": "> 200 µg/mL"}

Quick request: IC50 for each listed item, please.
1. CCCCCCCCCCCCSCCCCCCCCCCCCC(=O)NCCCCCCCCCCC(=O)NCCC(=O)[O-].[Na+]
2. CCCCCCCCCCCCSCCCCCCCCCCCCCCCCCCCCCCC(=O)NCCCCCCCCCCC(=O)[O-].[Na+]
3. CCCCCCCCCCCCSCCCCCCCCCCC(=O)N(CC)CCCCCCCCCCC(=O)NCCC(=O)[O-].[Na+]

1. > 200 µg/mL
2. > 100 µg/mL
3. > 200 µg/mL
